Attribution: ChEMBL document CHEMBL3885881

What PLATELET COUNT was measured for each of the following?
Organism: Rattus norvegicus
Assay: DrugMatrix - Regimen: Daily Repeat
Format: toxicity, organism-based, Sprague-Dawley
Parameters: regimen Daily Repeat, gender Male, age 6-8 weeks
Details: in vivo, po, 0 mg/kg, 72 h, tissue Blood, route oral GAVAGE, dose level Control, time 3 day, vehicle .5 % CMC
// units = x10E3/uL; emit number, no label

// sample CC(C(=O)O)c1ccc2oc(-c3ccc(Cl)cc3)nc2c1 (stereo not given) [BENOXAPROFEN] , its PLATELET COUNT was 1432.17

Entry CN(C/C=C/C#CC(C)(C)C)Cc1cccc2ccccc12 [TERBINAFINE] , PLATELET COUNT reported as 1386

The reported PLATELET COUNT of the compound COc1cc2nc(N3CCN(C(=O)c4ccco4)CC3)nc(N)c2cc1OC [PRAZOSIN] was 1342

For record NCCCC(O)(P(=O)(O)O)P(=O)(O)O [ALENDRONIC ACID] the listed PLATELET COUNT is 1068.8

For record O=C1C(CC[S+]([O-])c2ccccc2)C(=O)N(c2ccccc2)N1c1ccccc1 (stereo not given) [SULFINPYRAZONE] the listed PLATELET COUNT is 1342

The compound identified as CCN(CC)CCOc1ccc(/C(=C(/Cl)c2ccccc2)c2ccccc2)cc1 [ENCLOMIPHENE] registered its PLATELET COUNT at 1239.5

For CNCCC(Oc1ccc(C(F)(F)F)cc1)c1ccccc1 (stereo not given) [FLUOXETINE] the compound record lists PLATELET COUNT as 1074.83

Recorded PLATELET COUNT (compound CN/C(=N/CCSCc1nc[nH]c1C)NC#N [CIMETIDINE] ): 1118.17

Short answer for NC1CCN(c2nc3c(cc2F)c(=O)c(C(=O)O)cn3-c2ccc(F)cc2F)C1 (stereo not given) [TOSUFLOXACIN] : PLATELET COUNT was 1386

Briefly, PLATELET COUNT measured for Cn1c(=O)c2c(ncn2CC(O)CO)n(C)c1=O (stereo not given) [DYPHYLLINE] : 1188.5
